# assay-summary: Biodistribution in Daudi xenograft bearing mice
# Format: in vivo, mouse
# measurement-context: female, CB-17 SCID, mouse, liver, iv, total radioactivity, 1h p.i., coinjection of 50 µg AMD3100/animal; n=1; read-out: Biodistribution liver, + AMD3100
Where a SMILES comes first, the peptide text is derived from it. Side-chain parts run from the residue outwards. [ ]: non-standard residue; d: D form. The star is where a group is joined. DOTA = O=C(O)CN1CCN(CC(=O)O)CCN(CC(=O)*)CCN(CC(=O)O)CC1; 2Nal = N[C@@H](Cc1ccc2ccccc2c1)C(=O)O; dNMeOrn = CN[C@H](CCCN)C(=O)O; 4Abz = Nc1ccc(C(=O)O)cc1
assay-metric: tissue uptake at 1 h (%ID/g)
Response body: numeric value in %ID/g, unit text excluded.

input: Item C[C@@H](NC(=O)[C@@H](CCCNC(=N)N)NC(=O)CN1CCN(CC(=O)O)CCN(CC(=O)O)CCN(CC(=O)O)CC1)C(=O)Nc1ccc(C(=O)NCCC[C@@H]2C(=O)N[C@@H](CCCNC(=N)N)C(=O)N[C@@H](Cc3ccc4ccccc4c3)C(=O)NCC(=O)N[C@H](Cc3ccc(O)cc3)C(=O)N2C)cc1 [[^177Lu]DOTA-r-a-ABA-CPCR4, metal not drawn] (cyclo([2Nal]G[dY][dNMeOrn]([4Abz-dA-dR-DOTA])R)) has what recorded tissue uptake at 1 h?
output: 5.46

###

Listed here are compounds together with their documented tissue uptake at 48 h.
# assay-summary: Biodistribution in Daudi xenograft bearing mice
# Assay type: in vivo, mouse
# measurement-context: female, CB-17 SCID, mouse, tumor (Daudi xenograft), iv, total radioactivity, 48h p.i., i.v.; means ± SD, n=4-5; read-out: Biodistribution tumor (Daudi xenograft)
Where a SMILES comes first, the peptide text is derived from it. Side-chain parts run from the residue outwards. [ ]: non-standard residue; d: D form. The star is where a group is joined. DOTA = O=C(O)CN1CCN(CC(=O)O)CCN(CC(=O)*)CCN(CC(=O)O)CC1; dTyr(3-I) = N[C@H](Cc1ccc(O)c(I)c1)C(=O)O; 2Nal = N[C@@H](Cc1ccc2ccccc2c1)C(=O)O; dNMeOrn = CN[C@H](CCCN)C(=O)O; 4Abz = Nc1ccc(C(=O)O)cc1
Write the number in %ID/g without appending the unit.

INSERT INTO measurements (compound, numeric_value) VALUES
  ('C[C@@H](NC(=O)[C@@H](CCCNC(=N)N)NC(=O)CN1CCN(CC(=O)O)CCN(CC(=O)O)CCN(CC(=O)O)CC1)C(=O)Nc1ccc(C(=O)NCCC[C@@H]2C(=O)N[C@@H](CCCNC(=N)N)C(=O)N[C@@H](Cc3ccc4ccccc4c3)C(=O)NCC(=O)N[C@H](Cc3ccc(O)cc3)C(=O)N2C)cc1 [[^177Lu]DOTA-r-a-ABA-CPCR4, metal not drawn] (cyclo([2Nal]G[dY][dNMeOrn]([4Abz-dA-dR-DOTA])R))', 8.81);

Now consider a different compound.
input: Which tissue uptake at 48 h is listed for C[C@@H](NC(=O)[C@@H](CCCNC(=N)N)NC(=O)CN1CCN(CC(=O)O)CCN(CC(=O)O)CCN(CC(=O)O)CC1)C(=O)Nc1ccc(C(=O)NCCC[C@@H]2C(=O)N[C@@H](CCCNC(=N)N)C(=O)N[C@@H](Cc3ccc4ccccc4c3)C(=O)NCC(=O)N[C@H](Cc3ccc(O)c(I)c3)C(=O)N2C)cc1 [[^177Lu]DOTA-r-a-ABA-iodoCPCR4, metal not drawn] (cyclo([2Nal]G[dTyr(3-I)][dNMeOrn]([4Abz-dA-dR-DOTA])R)) ?
output: 8.11

###

# assay-summary: Biodistribution in Daudi xenograft bearing mice
# Format: in vivo, mouse
# measurement-context: female, CB-17 SCID, mouse, adrenals, iv, total radioactivity, 1h p.i., tracer only, i.v.; γ-counter; means ± SD, n=4-5 (68Ga: n=4); read-out: Biodistribution adrenals
Where a SMILES comes first, the peptide text is derived from it. Side-chain parts run from the residue outwards. [ ]: non-standard residue; d: D form. The star is where a group is joined. DOTA = O=C(O)CN1CCN(CC(=O)O)CCN(CC(=O)*)CCN(CC(=O)O)CC1; 2Nal = N[C@@H](Cc1ccc2ccccc2c1)C(=O)O; dNMeOrn = CN[C@H](CCCN)C(=O)O; 4Abz = Nc1ccc(C(=O)O)cc1
assay-metric: tissue uptake at 1 h (%ID/g)
Express it in %ID/g; write the number only.

input: So what does the record say about tissue uptake at 1 h for C[C@@H](NC(=O)[C@@H](CCCNC(=N)N)NC(=O)CN1CCN(CC(=O)O)CCN(CC(=O)O)CCN(CC(=O)O)CC1)C(=O)Nc1ccc(C(=O)NCCC[C@@H]2C(=O)N[C@@H](CCCNC(=N)N)C(=O)N[C@@H](Cc3ccc4ccccc4c3)C(=O)NCC(=O)N[C@H](Cc3ccc(O)cc3)C(=O)N2C)cc1 [[^68Ga]DOTA-r-a-ABA-CPCR4, metal not drawn] (cyclo([2Nal]G[dY][dNMeOrn]([4Abz-dA-dR-DOTA])R)) ?
output: 1.9

###

# measured-on: human CXCR4 (hCXCR4) (Homo sapiens, UniProt P61073)
# Construct: hCXCR4-expressing Jurkat human T-cell leukemia cells; endogenous in cells; host or cells: Jurkat human T-cell leukemia cells (whole cells)
# Sequence (P61073 whole entry): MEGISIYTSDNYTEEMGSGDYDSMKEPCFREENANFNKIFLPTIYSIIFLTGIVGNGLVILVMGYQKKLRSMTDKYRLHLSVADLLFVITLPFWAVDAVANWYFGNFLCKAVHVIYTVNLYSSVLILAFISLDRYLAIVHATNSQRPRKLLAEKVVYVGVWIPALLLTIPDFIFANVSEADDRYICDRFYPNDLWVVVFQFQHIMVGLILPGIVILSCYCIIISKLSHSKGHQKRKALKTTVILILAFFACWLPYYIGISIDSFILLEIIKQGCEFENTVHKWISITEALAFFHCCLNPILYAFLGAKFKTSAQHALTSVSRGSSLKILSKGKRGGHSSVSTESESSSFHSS
# assay-summary: Competition binding to hCXCR4, Jurkat cells, [125I]FC-131 as radioligand
# measurement-context: natGa-complex, Jurkat cells 400.000 cells/sample, means ± SD of min. three separate experiments, read-out: ^natGa-complex IC50 to hCXCR4
assay-metric: IC50 (nM)
Please state the figure in nM; there is no need to write the unit.

INSERT INTO assay_data (substance, assay_metric, numeric_value) VALUES
  ('DOTAGA-G-ABA-iodoCPCR4 (head to tail) [entry 7]', 'IC50', 47);

Shift focus to the following entry.
input: Form field: reported IC50 of DOTAGA-ABA-iodoCPCR4 (head to tail) [entry 4]
output: 14.4

###

# assay-summary: Biodistribution in Daudi xenograft bearing mice
# Assay type: in vivo, mouse
# measurement-context: female, CB-17 SCID, mouse, femur, iv, total radioactivity, 48h p.i., i.v.; means ± SD, n=4-5; read-out: Biodistribution femur
Where a SMILES comes first, the peptide text is derived from it. Side-chain parts run from the residue outwards. [ ]: non-standard residue; d: D form. The star is where a group is joined. DOTA = O=C(O)CN1CCN(CC(=O)O)CCN(CC(=O)*)CCN(CC(=O)O)CC1; dTyr(3-I) = N[C@H](Cc1ccc(O)c(I)c1)C(=O)O; 2Nal = N[C@@H](Cc1ccc2ccccc2c1)C(=O)O; dNMeOrn = CN[C@H](CCCN)C(=O)O; 4Abz = Nc1ccc(C(=O)O)cc1
assay-metric: tissue uptake at 48 h (%ID/g)
Give just the number in %ID/g; leave the unit off.

INSERT INTO measurements (compound, assay_metric, numeric_value) VALUES
  ('C[C@@H](NC(=O)[C@@H](CCCNC(=N)N)NC(=O)CN1CCN(CC(=O)O)CCN(CC(=O)O)CCN(CC(=O)O)CC1)C(=O)Nc1ccc(C(=O)NCCC[C@@H]2C(=O)N[C@@H](CCCNC(=N)N)C(=O)N[C@@H](Cc3ccc4ccccc4c3)C(=O)NCC(=O)N[C@H](Cc3ccc(O)c(I)c3)C(=O)N2C)cc1 [[^177Lu]DOTA-r-a-ABA-iodoCPCR4, metal not drawn] (cyclo([2Nal]G[dTyr(3-I)][dNMeOrn]([4Abz-dA-dR-DOTA])R))', 'tissue uptake at 48 h', 0.34);

Continue with the next compound.
input: Using the record for C[C@@H](NC(=O)[C@@H](CCCNC(=N)N)NC(=O)CN1CCN(CC(=O)O)CCN(CC(=O)O)CCN(CC(=O)O)CC1)C(=O)Nc1ccc(C(=O)NCCC[C@@H]2C(=O)N[C@@H](CCCNC(=N)N)C(=O)N[C@@H](Cc3ccc4ccccc4c3)C(=O)NCC(=O)N[C@H](Cc3ccc(O)cc3)C(=O)N2C)cc1 [[^177Lu]DOTA-r-a-ABA-CPCR4, metal not drawn] (cyclo([2Nal]G[dY][dNMeOrn]([4Abz-dA-dR-DOTA])R)) , report its tissue uptake at 48 h.
output: 0.29

###

# assay-summary: Biodistribution in Daudi xenograft bearing mice
# Type: in vivo, mouse
# measurement-context: female, CB-17 SCID, mouse, tumor / liver, iv, total radioactivity; 48h p.i.; means ± SD, n=4-5 animals; read-out: Tumor/organ ratio t/liver
Where a SMILES comes first, the peptide text is derived from it. Side-chain parts run from the residue outwards. [ ]: non-standard residue; d: D form. The star is where a group is joined. DOTA = O=C(O)CN1CCN(CC(=O)O)CCN(CC(=O)*)CCN(CC(=O)O)CC1; dTyr(3-I) = N[C@H](Cc1ccc(O)c(I)c1)C(=O)O; 2Nal = N[C@@H](Cc1ccc2ccccc2c1)C(=O)O; dNMeOrn = CN[C@H](CCCN)C(=O)O; 4Abz = Nc1ccc(C(=O)O)cc1
Each record here notes measured tissue to tissue ratio at 48 h.

input: Query: tissue to tissue ratio at 48 h; subject: C[C@@H](NC(=O)[C@@H](CCCNC(=N)N)NC(=O)CN1CCN(CC(=O)O)CCN(CC(=O)O)CCN(CC(=O)O)CC1)C(=O)Nc1ccc(C(=O)NCCC[C@@H]2C(=O)N[C@@H](CCCNC(=N)N)C(=O)N[C@@H](Cc3ccc4ccccc4c3)C(=O)NCC(=O)N[C@H](Cc3ccc(O)c(I)c3)C(=O)N2C)cc1 [[^177Lu]DOTA-r-a-ABA-iodoCPCR4, metal not drawn] (cyclo([2Nal]G[dTyr(3-I)][dNMeOrn]([4Abz-dA-dR-DOTA])R))
output: 0.6

input: If you can, please state the reported tissue to tissue ratio at 48 h value of C[C@@H](NC(=O)[C@@H](CCCNC(=N)N)NC(=O)CN1CCN(CC(=O)O)CCN(CC(=O)O)CCN(CC(=O)O)CC1)C(=O)Nc1ccc(C(=O)NCCC[C@@H]2C(=O)N[C@@H](CCCNC(=N)N)C(=O)N[C@@H](Cc3ccc4ccccc4c3)C(=O)NCC(=O)N[C@H](Cc3ccc(O)cc3)C(=O)N2C)cc1 [[^177Lu]DOTA-r-a-ABA-CPCR4, metal not drawn] (cyclo([2Nal]G[dY][dNMeOrn]([4Abz-dA-dR-DOTA])R)) .
output: 1
